target: system Xc^− (Homo sapiens)
Sequence (Q9UPY5 whole entry): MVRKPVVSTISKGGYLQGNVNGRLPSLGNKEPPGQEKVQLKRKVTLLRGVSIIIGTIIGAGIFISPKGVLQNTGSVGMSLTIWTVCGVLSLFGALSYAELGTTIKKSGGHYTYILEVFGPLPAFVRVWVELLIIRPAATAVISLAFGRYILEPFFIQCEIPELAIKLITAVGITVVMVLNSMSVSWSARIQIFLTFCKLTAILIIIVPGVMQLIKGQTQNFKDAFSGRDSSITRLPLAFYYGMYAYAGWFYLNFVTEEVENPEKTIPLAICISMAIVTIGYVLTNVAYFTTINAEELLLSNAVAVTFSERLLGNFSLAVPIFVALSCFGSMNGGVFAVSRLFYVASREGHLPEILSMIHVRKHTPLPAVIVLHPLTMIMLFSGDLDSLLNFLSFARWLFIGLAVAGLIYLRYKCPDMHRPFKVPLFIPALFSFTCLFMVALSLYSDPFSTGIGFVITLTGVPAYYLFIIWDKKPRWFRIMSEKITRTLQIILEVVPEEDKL
Sequence (P08195 102-630 partner): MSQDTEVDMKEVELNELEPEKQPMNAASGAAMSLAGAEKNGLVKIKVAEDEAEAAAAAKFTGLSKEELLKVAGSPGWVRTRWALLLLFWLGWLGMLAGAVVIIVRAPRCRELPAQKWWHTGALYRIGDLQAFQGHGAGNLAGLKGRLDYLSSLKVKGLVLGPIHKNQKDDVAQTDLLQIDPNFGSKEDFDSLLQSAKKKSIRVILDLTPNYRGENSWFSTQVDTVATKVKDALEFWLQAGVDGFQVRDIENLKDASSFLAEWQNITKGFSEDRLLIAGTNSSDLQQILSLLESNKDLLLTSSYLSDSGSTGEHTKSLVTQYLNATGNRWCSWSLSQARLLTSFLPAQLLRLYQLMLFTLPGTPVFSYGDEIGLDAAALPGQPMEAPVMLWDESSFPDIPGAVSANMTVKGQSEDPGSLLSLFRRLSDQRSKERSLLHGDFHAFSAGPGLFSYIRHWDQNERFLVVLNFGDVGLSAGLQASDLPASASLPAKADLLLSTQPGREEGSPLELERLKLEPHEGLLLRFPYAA
protocol.notes: Cystine-induced glutamate release assay
Assay type: cell-based
Design: endogenous in cells; host or cells: H4 cells
condition.notes: H4 cells, sodium-free HEPES buffer, 50 μM L-Cystine, 2 hours, Amplex Red glutamate readout; read-out: pIC50 Cystine-induced glutamate release assay (converted)
Method: The effect of compounds of Formula (I) on the system Xc^− functionality was examined in two independent cell assays: (i) measurement of cystine-induced glutamate release; and (ii) measurement of [^14C]L-Cystine uptake. […] In this assay, the medium is devoid of sodium to prevent the transport of glutamate by sodium-dependent excitatory amino acid transporters (EAATs). […] Fluorescence intensity was measured by EnVision microplate reader (PerkinElmer).
experimental.endpoint: IC50

Exercise: Given the molecule Cc1cc2c(c(Cl)n1)-c1cccnc1C(C)C(=O)N2CC(=O)Nc1ccc(C(F)(F)F)cn1 (single isomer, unassigned) , write its reported IC50.
Key: 15.8 to 39.8 nM

Exercise: Given the molecule Cc1cc2c(c(F)n1)-c1cc(F)cnc1[C@H](C)C(=O)N2CC(=O)Nc1ccc(Cl)c(F)c1 (single isomer, unassigned) , write its reported IC50.
Key: < 15.8 nM

Exercise: Given the molecule Cc1cc2c(c(=O)n1C)-c1sccc1C(C)C(=O)N2CC(=O)Nc1ccc(C(F)F)cc1 (stereo not drawn) , write its reported IC50.
Key: 15.8 to 39.8 nM

Exercise: Given the molecule Cc1cc2c(c(C)n1)-c1ccc(C)nc1CC(=O)N2CC(=O)Nc1ccc(C(F)(F)F)cc1 , write its reported IC50.
Key: 39.8 to 100 nM

Exercise: Given the molecule CC1C(=O)N(CC(=O)Nc2ccc(Cl)c(F)c2)c2cc(OCCO)nc(F)c2-c2cccnc21 (stereo not drawn) , write its reported IC50.
Key: < 15.8 nM

Exercise: Given the molecule Cc1cc2c(c(Cl)n1)-c1cncnc1C(C)C(=O)N2CC(=O)Nc1ccc(Cl)c(F)c1 (single isomer, unassigned) , write its reported IC50.
Key: < 15.8 nM

Exercise: Given the molecule Cc1cc2c(c(Cl)n1)-c1cccnc1C(C)C(=O)N2CC(=O)Nc1cc(F)c(Cl)cc1F (single isomer, unassigned) , write its reported IC50.
Key: < 15.8 nM

Exercise: Given the molecule CC1C(=O)N(CC(=O)Nc2ccc(Cl)c(F)c2)c2cc(N3[C@@H]4CCC[C@H]3C4)nc(F)c2-c2cccnc21 (single isomer, unassigned) , write its reported IC50.
Key: 39.8 to 100 nM

Exercise: Given the molecule CC1C(=O)N(CC(=O)Nc2ccc(C(F)F)cc2)c2cc(N3CC(F)(F)C3)nc(F)c2-c2cccnc21 (single isomer, unassigned) , write its reported IC50.
Key: < 15.8 nM

Exercise: Given the molecule O=C(CN1C(=O)Cc2ccccc2-c2c1cc(C(F)F)nc2Cl)Nc1ccc(C(F)F)cc1 , write its reported IC50.
Key: < 15.8 nM

Exercise: Given the molecule Cc1cc2c(c(F)n1)-c1cccnc1[C@@H](C)C(=O)N2CC(=O)Nc1ccc(F)c(Cl)c1 , write its reported IC50.
Key: < 15.8 nM

Exercise: Given the molecule CC1C(=O)N(CC(=O)Nc2ccc(Cl)c(F)c2)c2cc(N3CC(F)(F)C3)ncc2-c2cccnc21 (single isomer, unassigned) , write its reported IC50.
Key: 39.8 to 100 nM

Exercise: Given the molecule COc1nc(C)cc2c1-c1cccnc1CC(=O)N2CC(=O)Nc1ccc(C(F)(F)F)cc1 , write its reported IC50.
Key: 15.8 to 39.8 nM

Exercise: Given the molecule Cc1cc2c(cn1)-c1cc(F)ccc1CC(=O)N2CC(=O)Nc1ccc(C(F)(F)F)cc1 , write its reported IC50.
Key: 39.8 to 100 nM

Exercise: Given the molecule Cc1cc2c(c(F)n1)-c1cccnc1[C@@H](C)C(=O)N2CC(=O)Nc1ccc(C(F)F)cc1 , write its reported IC50.
Key: < 15.8 nM

Exercise: Given the molecule O=C(CN1C(=O)Cc2ccccc2-c2cnc(N3CC(F)(F)C3)cc21)Nc1ccc(C(F)(F)F)cc1 , write its reported IC50.
Key: 39.8 to 100 nM

Exercise: Given the molecule Cc1cc2c(c(Cl)n1)-c1cccnc1C(C)C(=O)N2CC(=O)Nc1ccc(C(F)F)cc1 (single isomer, unassigned) , write its reported IC50.
Key: < 15.8 nM

Exercise: Given the molecule Cc1nc(C#N)cc2c1-c1cccnc1CC(=O)N2CC(=O)Nc1ccc(C(F)(F)F)cc1 , write its reported IC50.
Key: 39.8 to 100 nM

Exercise: Given the molecule Cc1cc2c(c(F)n1)-c1cccnc1C(C)C(=O)N2CC(=O)Nc1ccc(C2CC2)c(F)c1 (stereo not drawn) , write its reported IC50.
Key: 15.8 to 39.8 nM

Exercise: Given the molecule Cc1cc2c(c(F)n1)-c1cccnc1C(O)C(=O)N2CC(=O)Nc1ccc(Br)c(Cl)c1 (single isomer, unassigned) , write its reported IC50.
Key: 15.8 to 39.8 nM

Exercise: Given the molecule Cc1cc2c(c(F)n1)-c1cccnc1[C@@H](C)C(=O)N2CC(=O)Nc1ccc(Br)c(F)c1 , write its reported IC50.
Key: 15.8 to 39.8 nM

Exercise: Given the molecule Cc1cc2c(c(F)n1)-c1cncnc1C(C)C(=O)N2CC(=O)Nc1ccc(C(F)F)cc1 (single isomer, unassigned) , write its reported IC50.
Key: 15.8 to 39.8 nM

Exercise: Given the molecule CC1C(=O)N(CC(=O)Nc2ccc(Cl)c(F)c2)c2cc(F)cc(F)c2-c2cccnc21 (single isomer, unassigned) , write its reported IC50.
Key: 15.8 to 39.8 nM

Exercise: Given the molecule COc1nc(C)cc2c1-c1cc(C)nn1CC(=O)N2CC(=O)Nc1ccc(C(F)(F)F)cc1 , write its reported IC50.
Key: 39.8 to 100 nM

Exercise: Given the molecule Cc1cc2c(c(Cl)n1)-c1cncnc1C(C)C(=O)N2CC(=O)Nc1ccc(C(F)(F)F)cc1 (stereo not drawn) , write its reported IC50.
Key: 15.8 to 39.8 nM

Exercise: Given the molecule COc1nc2c(cc1C)N(CC(=O)Nc1ccc(C(F)(F)F)cc1)C(=O)C(C)c1ncccc1-2 (stereo not drawn) , write its reported IC50.
Key: 39.8 to 100 nM

Exercise: Given the molecule Cc1cc2c(cc1C)N(CC(=O)Nc1ccc(Cl)c(F)c1)C(=O)Cc1ccncc1-2 , write its reported IC50.
Key: 100 to 501 nM

Exercise: Given the molecule Cc1cc2c(c(F)n1)-c1ccccc1CC(=O)N2CC(=O)Nc1ccc(C(F)(F)F)cc1 , write its reported IC50.
Key: 15.8 to 39.8 nM

Exercise: Given the molecule COc1cc2c(c(OC)n1)-c1cccnc1CC(=O)N2CC(=O)Nc1ccc(C(F)(F)F)cc1 , write its reported IC50.
Key: 39.8 to 100 nM

Exercise: Given the molecule Cc1c2c(cc(=O)n1C)N(CC(=O)Nc1ccc(Cl)c(F)c1)C(=O)C(C)c1ccccc1-2 (stereo not drawn) , write its reported IC50.
Key: 15.8 to 39.8 nM
